Test system: Escherichia coli TOP10
Experiment: shrunken log2 fold change of peptide-encoding DNA abundance (4.5 h post-induction vs induction); higher = less antimicrobial activity (less host growth inhibition)
Conditions: time post-induction: 4.5 h; library: site-saturation at positions 5, 18, 19, 20
sequences and their reported shrunken log2 fold change
TEST READOUT: shrunken log2 fold change

In [3]: df
Out[3]:
       biopolymer_sequence               test_readout  recorded_value
0  RRIRYRPPRLPRPRPRPCFRPRP  shrunken log2 fold change          -0.266
1  RRIRQRPPRLPRPRPRPITHPRP  shrunken log2 fold change          -0.102
2  RRIRNRPPRLPRPRPRPNTRPRP  shrunken log2 fold change          -0.115
3  RRIRYRPPRLPRPRPRPPTCPRP  shrunken log2 fold change          -0.163
4  RRIRCRPPRLPRPRPRPGDWPRP  shrunken log2 fold change           0.377
5  RRIRKRPPRLPRPRPRPICGPRP  shrunken log2 fold change          0.0699

* * *

Test system: Escherichia coli TOP10;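 further: peptides expressed intracellularly from a pBAD plasmid library in pooled LB shake-flask culture, induced with 0.3% L-arabinose, DNA abundance read by NGS, three biological replicates, DESeq2 with apeglm shrinkage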
Experiment: shrunken log2 fold change of peptide-encoding DNA abundance (4.5 h post-induction vs induction); higher = less antimicrobial activity (less host growth inhibition)
Conditions: time post-induction: 4.5 h; library: site-saturation at positions 5, 18, 19, 20
TEST READOUT: shrunken log2 fold change

In [3]: df
Out[3]:
        biopolymer_sequence  recorded_value
 0  RRIRHRPPRLPRPRPRPMKNPRP          0.0372
 1  RRIRNRPPRLPRPRPRPARMPRP           0.991
 2  RRIRLRPPRLPRPRPRPTQWPRP           0.453
 3  RRIRFRPPRLPRPRPRPAKHPRP          -0.149
 4  RRIRNRPPRLPRPRPRPWACPRP          0.0014
 5  RRIRFRPPRLPRPRPRPDRAPRP           0.131
 6  RRIRCRPPRLPRPRPRPKKSPRP         -0.0331
 7  RRIRCRPPRLPRPRPRPEHYPRP          -0.625
 8  RRIRPRPPRLPRPRPRPQKKPRP          -0.113
 9  RRIRWRPPRLPRPRPRPLRQPRP           0.539
10  RRIRRRPPRLPRPRPRPVCSPRP           0.225
11  RRIRMRPPRLPRPRPRPIPHPRP           0.246
12  RRIRIRPPRLPRPRPRPQHMPRP           -0.94
13  RRIRGRPPRLPRPRPRPQVGPRP           0.395
14  RRIRHRPPRLPRPRPRPWSTPRP         -0.0631
15  RRIRMRPPRLPRPRPRPHLYPRP         -0.0224
16  RRIRQRPPRLPRPRPRPPATPRP           0.452
17  RRIRFRPPRLPRPRPRPAKIPRP           0.117
18  RRIRKRPPRLPRPRPRPRLCPRP           0.308
19  RRIRIRPPRLPRPRPRPAPKPRP           0.187
20  RRIRCRPPRLPRPRPRPANVPRP         -0.0934
21  RRIRHRPPRLPRPRPRPPQDPRP          0.0355
22  RRIRLRPPRLPRPRPRPYHEPRP            -1.6
23  RRIRRRPPRLPRPRPRPPALPRP           0.635
